Quick list: gamma_day5 per entry.
Test system: K562 CRISPRi cells
experimental protocol: Perturb-seq pooled growth measurement (sgRNA counts, growth phenotype γ, relative activity)
Type: cell-based, human
measurement parameters: pooled growth phenotype γ of the Perturb-seq sgRNA, day 5, K562 CRISPRi cells
When you answer, write just the number.

Field: example entries. Status: answers known.
EIF2S1_ −_67827080.23-P1P2_06 (guide GAGCGAAGCGCGCGCTGAGG; listed as DNA, chemistry not fully specified): −0.6688
CDC23_ −_137548987.23-P1P2_11 (guide GACAGCCACCGGGACCACGG; listed as DNA, chemistry not fully specified): −0.2745

Now, please, on to the next substance.
Query: Would you mind telling me what gamma_day5 value was observed for ALDOA_ + _30077139.23-P1P2_00 (guide GGTCACCAGGACCCCTTCTG; listed as DNA, chemistry not fully specified) ?
Reply: −0.4127
